System: Colon DLD1
ASSAY_PROCEDURE: MTT assay for 7-day toxicity assay
Type: cell-based
CONDITION_CONTEXT: Homo sapiens, DLD-1, Colon DLD1; read-out: GI50
ASSAY_ENDPOINT: GI50 (µM)
// note: answer is a bare numeric in µM

* COCn1nnc2c(C(N)=O)ncn2c1=O | 55.4
* Cn1nnc2c(C(N)=O)ncn2c1=O [TMZ, reference compound] | 435
* C[S+]([O-])Cn1nnc2c(C(N)=O)ncn2c1=O (stereo not shown) | 8.2

Please look at the following compound next.
Challenge: Recorded GI50 for `C[Si](C)(C)CCOCn1nnc2c(C(N)=O)ncn2c1=O` , please?
Response given: 53.7

* * *

System: Colon HT29 (MMR proficient)
ASSAY_PROCEDURE: MTT assay for 7-day toxicity assay
Assay type: cell-based
CONDITION_CONTEXT: Homo sapiens, HT-29, 168 h, Colon HT29 (MMR proficient); 7-day MTT; single determinations; read-out: GI50
Listing of entries alongside the reported log10 GI50.
Base-10 log of GI50, unit µM.

Challenge: Recorded log10 GI50 for Cn1nnc2c(C(N)=O)ncn2c1=O [TMZ, reference compound] , please?
Response given: 2.85

Challenge: Recorded log10 GI50 for `NC(=O)c1ncn2c(=O)n(Cc3ccco3)nnc12` , please?
Response given: 1.43

Challenge: Recorded log10 GI50 for `C#CCn1nnc2c(C(N)=O)ncn2c1=O` , please?
Response given: 1.32

Challenge: Recorded log10 GI50 for `C[C@@H](c1ccccc1)n1nnc2c(C(N)=O)ncn2c1=O` , please?
Response given: 2.39

Challenge: Recorded log10 GI50 for `COc1cc(Cn2nnc3c(C(N)=O)ncn3c2=O)cc(OC)c1OC` , please?
Response given: 2.11

Challenge: Recorded log10 GI50 for `COc1cccc(Cn2nnc3c(C(N)=O)ncn3c2=O)c1` , please?
Response given: 2.54

Challenge: Recorded log10 GI50 for `NC(=O)c1ncn2c(=O)n(CCc3ccccc3)nnc12` , please?
Response given: 2.70

* * *

Listing of entries alongside the reported GI50.
Test system: Glioma SNB19V (MGMT−)
ASSAY_PROCEDURE: MTT assay for 7-day toxicity assay
Format: cell-based
CONDITION_CONTEXT: Glioma SNB19V (MGMT−); 7-day MTT; single determinations; read-out: GI50
// note: answer is a bare numeric in µM

// known answers, use as guide
* Cc1cc(Cn2nnc3c(C(N)=O)ncn3c2=O)on1 | 54.9
* COC(=O)Cn1nnc2c(C(N)=O)ncn2c1=O | 29.7

Challenge: Recorded GI50 for `NC(=O)c1ncn2c(=O)n(C3CCCC3)nnc12` , please?
Response given: 266

Challenge: Recorded GI50 for `CC#CCn1nnc2c(C(N)=O)ncn2c1=O` , please?
Response given: 45.8

Challenge: Recorded GI50 for `COc1ccc([C@@H](C)n2nnc3c(C(N)=O)ncn3c2=O)cc1` , please?
Response given: 93.7

Challenge: Recorded GI50 for `C[Si](C)(C)C#CCn1nnc2c(C(N)=O)ncn2c1=O` , please?
Response given: 36.6

Challenge: Recorded GI50 for `COc1ccc(Cn2nnc3c(C(N)=O)ncn3c2=O)cc1OC` , please?
Response given: 114

Challenge: Recorded GI50 for `NC(=O)c1ncn2c(=O)n(Cc3cccs3)nnc12` , please?
Response given: 52

Challenge: Recorded GI50 for `NC(=O)Cn1nnc2c(C(N)=O)ncn2c1=O` , please?
Response given: 38.5

Challenge: Recorded GI50 for `CC(=O)OCn1nnc2c(C(N)=O)ncn2c1=O` , please?
Response given: 40.1

Challenge: Recorded GI50 for `NC(=O)c1ncn2c(=O)n(CCC(=O)O)nnc12` , please?
Response given: 355
